Reference for the values: ChEMBL document CHEMBL5055678

assayedTarget: [Pyruvate dehydrogenase (acetyl-transferring)] kinase isozyme 4, mitochondrial (Homo sapiens)
Sequence (Q16654 whole entry): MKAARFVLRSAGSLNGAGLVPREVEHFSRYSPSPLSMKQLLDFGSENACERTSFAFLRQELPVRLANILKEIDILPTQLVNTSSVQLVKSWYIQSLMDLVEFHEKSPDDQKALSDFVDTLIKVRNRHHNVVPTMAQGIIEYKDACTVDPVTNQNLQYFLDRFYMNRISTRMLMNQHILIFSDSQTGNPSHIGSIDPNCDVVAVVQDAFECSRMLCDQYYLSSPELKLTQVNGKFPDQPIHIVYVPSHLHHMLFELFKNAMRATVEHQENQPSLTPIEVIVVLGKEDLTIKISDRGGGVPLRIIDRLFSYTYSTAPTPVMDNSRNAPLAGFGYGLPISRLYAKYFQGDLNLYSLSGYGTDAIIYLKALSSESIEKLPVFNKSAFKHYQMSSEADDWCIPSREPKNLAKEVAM
protocolText: Inhibition of human recombinant PDHK4 co-complexed with porcine PDH using sodium pyruvate, coenzymeA and NAD as substrates preincubated with enzyme complex for 45 mins followed by substrates addition and further incubated for 90 mins in presence of ATP at Km concentration by spectrophotometric assay
endpointName: IC50

Before answering, review these 2 worked examples.
{"columns": ["smiles", "IC50"],
 "data": [
  ["CNC(=O)c1cc2c(nc1C)[nH]c1c(C3CC3)cccc12", "> 30 µM"],
  ["COC(=O)c1cc2c(nc1C)[nH]c1c(C3CC3)cccc12", "1.54 µM"]
]}

Query block: // returns reported IC50 for input `Cc1nc(N2CCC[C@@H]2CO)c2c(n1)[nH]c1c(C3CC3)cccc12`
Result block: > 30 µM
